Where do the numbers come from? From IntAct's records for PubMed 31515488.

B1: Keratin, type II cytoskeletal 6A (Homo sapiens), P02538 (parent)
chain: MASTSTTIRSHSSSRRGFSANSARLPGVSRSGFSSVSVSRSRGSGGLGGACGGAGFGSRSLYGLGGSKRISIGGGSCAISGGYGSRAGGSYGFGGAGSGFGFGGGAGIGFGLGGGAGLAGGFGGPGFPVCPPGGIQEVTVNQSLLTPLNLQIDPTIQRVRAEEREQIKTLNNKFASFIDKVRFLEQQNKVLETKWTLLQEQGTKTVRQNLEPLFEQYINNLRRQLDSIVGERGRLDSELRGMQDLVEDFKNKYEDEINKRTAAENEFVTLKKDVDAAYMNKVELQAKADTLTDEINFLRALYDAELSQMQTHISDTSVVLSMDNNRNLDLDSIIAEVKAQYEEIAQRSRAEAESWYQTKYEELQVTAGRHGDDLRNTKQEIAEINRMIQRLRSEIDHVKKQCANLQAAIADAEQRGEMALKDAKNKLEGLEDALQKAKQDLARLLKEYQELMNVKLALDVEIATYRKLLEGEECRLNGEGVGQVNISVVQSTVSSGYGGASGVGSGLGLGGGSSYSYGSGLGVGGGFSSSSGRAIGGGLSSVGGGSSTIKYTTTSSSSRKSYKH
partner: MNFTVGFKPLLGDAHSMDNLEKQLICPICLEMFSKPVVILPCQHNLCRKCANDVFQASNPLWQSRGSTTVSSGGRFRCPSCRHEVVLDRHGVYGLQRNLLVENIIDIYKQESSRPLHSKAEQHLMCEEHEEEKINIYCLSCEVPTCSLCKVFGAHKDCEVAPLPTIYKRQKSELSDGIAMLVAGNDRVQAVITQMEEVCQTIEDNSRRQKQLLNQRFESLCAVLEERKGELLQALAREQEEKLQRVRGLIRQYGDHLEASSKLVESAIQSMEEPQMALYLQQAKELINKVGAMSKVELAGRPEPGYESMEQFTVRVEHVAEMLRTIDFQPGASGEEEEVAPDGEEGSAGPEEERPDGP

Variants of: B1
condition.label: with tri54_human TRIM54, Q9BYV2
assay.metric: effect of a mutation on the interaction

mutation.notation: A335T
measured.value: with no effect
//
mutation.notation: R559G
measured.value: with no effect
//
mutation.notation: V523F
measured.value: with no effect
//
mutation.notation: L210M
measured.value: with no effect
//
mutation.notation: T552S
measured.value: with no effect

// next entry
Please look at this variant and report its effect of a mutation on the interaction: `R415H`
with no effect
